# protocol_notes: A673 Ewing sarcoma viability loss – cell-based, CellTiter-Glo luminescence, cherry-pick retest, confirmation (AID 720587)
# experimental_setup: A673 Ewing sarcoma viability, CellTiter-Glo ATP luminescence, 72 h; at 26 µM (top of the series)

{"record_smiles": "COCc1cc(C)nc2sc(C(=O)NCCO)c(-n3cccc3)c12", "activity change, negative = cytotoxicity [%]": 13.2}
{"record_smiles": "O=C1C(=O)N(Cc2cccs2)c2ccccc21", "activity change, negative = cytotoxicity [%]": -4.57}
{"record_smiles": "COc1ccc2nc(-c3ccc(F)cc3)sc2c1", "activity change, negative = cytotoxicity [%]": -14.9}
{"record_smiles": "CC(C)(C)C(=O)Nc1ccc(N=Nc2ccccc2)cc1", "activity change, negative = cytotoxicity [%]": -13.9}
{"record_smiles": "Nc1ccc(Oc2cccc(Oc3ccc(N)cc3)c2)cc1", "activity change, negative = cytotoxicity [%]": -3.72}
{"record_smiles": "COC(=O)C[C@@H]1CC[C@@H]2[C@H](COc3ccc(NC(=O)c4ccccc4)cc3C(=O)N2C)O1", "activity change, negative = cytotoxicity [%]": -5.14}
